target: T1, Nat1 (LTIITLE) (also: TFA salt); assay: cell-based or functional assay
T1 peptide: LTIITLE
Non-standard residues stand in square brackets, D forms with d. No end group written: not given here. Chg = N[C@H](C(=O)O)C1CCCCC1
I'd appreciate it if you marked entries true (1) when IC50, Thiofiavin T aggregation assay is lower than 100 nM and false (0) when it is not.

FRLYIH : false (0)
[dK][dR][dW][dR][dH][dQ][dR] [krwrhqr] : false (0)
IR[Chg]RRYR [Ile-Arg-Chg-Arg-Arg-Tyr-Arg] : true (1)
[dH][dW][dR][dW][dR][dW][dR] [hwrwrwr] : false (0)
[dY][dQ][dY][dY][dY][dQ][dR] [yqyyyqr] : false (0)
WRIRRYR : false (0)
[dR][dW][dR][dW][dH][dH][dR] [rwrwhhr] : false (0)
[dQ][dQ][dR][dY][dY][dW][dR] [qqryywr] : true (1)
IAIRRYR : true (1)
WTRITLK : false (0)

Strictly below 100 nM: is that where IC50, Thiofiavin T aggregation assay of WTRIYLH sits? false (0)

Determine if [dQ][dV][dR][dY][dH][dK][dN] [qvryhkn] shows IC50, Thiofiavin T aggregation assay strictly lower than 100 nM. false (0)

Please check: IC50, Thiofiavin T aggregation assay for [dW][dW][dR][dW][dY][dR][dR] [wwrwyrr] , strictly under 100 nM or not? true (1)

Is the reported IC50, Thiofiavin T aggregation assay for [dR][dQ][dW][dY][dH][dW][dR] [rqwyhwr] strictly below 100 nM? false (0)
